Tested on: HL-60
assay explanation: Cytotoxicity against vincristine-resistant human HL60 cells after 72 hrs MTS assay
Format: functional, cell-based
condition: HL-60, 72 h
pIC50: −log10 of the molar value.
Attribute: pIC50
measure name: pIC50

>>> result_value("COc1cc2c(cc1O)CC[C@@H]1[C@@H]2CC[C@]2(C)[C@@H](O)CC[C@@H]12")
6.05
>>> result_value("COc1cccc(/C=C/C(=O)Nc2cc(OC)c(OC)c(OC)c2)c1")
4.94
>>> result_value("COc1cc(NC(=O)/C=C/c2cccc(OCc3ccccc3)c2)cc(OC)c1OC")
5.26
>>> result_value("COc1cc(NC(=O)/C=C/c2cccc(OC(F)(F)F)c2)cc(OC)c1OC")
4.88

Origin of the recorded values: ChEMBL document CHEMBL1157767
